molecular target: JAK1 kinase (Homo sapiens (Human), UniProt P23458); experiment: In vitro inhibitory activity on JAK1 kinase (ADP-Glo Kinase Assay); assay type: biochemical; conditions: JAK1 4 nM, 1 mM ATP, IRS1 substrate
Sequence (P23458 whole entry): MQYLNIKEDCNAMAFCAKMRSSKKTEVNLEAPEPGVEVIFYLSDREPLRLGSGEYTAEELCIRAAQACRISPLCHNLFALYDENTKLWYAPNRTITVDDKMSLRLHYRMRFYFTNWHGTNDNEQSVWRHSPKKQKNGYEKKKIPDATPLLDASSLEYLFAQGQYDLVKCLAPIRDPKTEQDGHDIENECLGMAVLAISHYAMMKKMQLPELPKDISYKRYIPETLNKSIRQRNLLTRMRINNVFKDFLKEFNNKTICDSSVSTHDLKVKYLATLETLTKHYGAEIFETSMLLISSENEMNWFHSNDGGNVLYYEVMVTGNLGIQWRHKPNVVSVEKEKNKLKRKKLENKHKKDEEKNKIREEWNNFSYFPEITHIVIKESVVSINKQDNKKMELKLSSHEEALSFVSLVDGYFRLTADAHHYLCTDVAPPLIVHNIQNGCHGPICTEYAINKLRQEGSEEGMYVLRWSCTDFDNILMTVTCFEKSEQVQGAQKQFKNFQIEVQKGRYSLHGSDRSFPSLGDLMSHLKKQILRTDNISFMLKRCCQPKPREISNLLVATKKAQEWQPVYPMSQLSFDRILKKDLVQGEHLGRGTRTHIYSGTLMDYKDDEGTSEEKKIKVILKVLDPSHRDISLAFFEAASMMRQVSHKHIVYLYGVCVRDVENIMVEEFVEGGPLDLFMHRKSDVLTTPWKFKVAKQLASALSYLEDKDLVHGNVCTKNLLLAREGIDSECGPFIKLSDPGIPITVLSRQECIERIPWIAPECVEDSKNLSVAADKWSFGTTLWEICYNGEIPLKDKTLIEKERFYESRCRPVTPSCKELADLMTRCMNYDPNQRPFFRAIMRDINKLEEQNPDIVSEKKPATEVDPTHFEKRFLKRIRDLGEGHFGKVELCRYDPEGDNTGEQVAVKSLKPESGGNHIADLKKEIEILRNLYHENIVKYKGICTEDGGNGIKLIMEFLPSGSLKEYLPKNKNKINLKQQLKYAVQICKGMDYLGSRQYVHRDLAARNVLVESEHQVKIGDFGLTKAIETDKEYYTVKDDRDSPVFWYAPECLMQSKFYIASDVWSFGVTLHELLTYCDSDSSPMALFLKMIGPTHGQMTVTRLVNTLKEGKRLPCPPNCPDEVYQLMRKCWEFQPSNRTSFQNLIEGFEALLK
measurement_type: IC50

// returns reported IC50 for input Cn1cc(Nc2nccc(C3=CC4CCC(C3)N4C(=O)[C@@H]3C[C@H]3F)n2)cn1 (stereo partly drawn) [Compound 1]
< 100 nM

* * *

In this section, each of the compounds is paired with its reported half-life.
experiment: Pharmacokinetic study in rats; format: in vivo, rat; conditions: rat, plasma; male SD rats; i.v. 1 mg/kg, p.o. 5 mg/kg; route of this value not stated

Cn1cc(Nc2nccc(C3=C[C@H]4CC[C@@H](C3)N4C(=O)[C@@H]3C[C@H]3F)n2)cn1 > 1 h

Continue with the next compound.
I am curious: what half-life value has been reported for Cn1cc(Nc2nccc(C3=C[C@@H]4CC[C@H](C3)N4C(=O)[C@@H]3C[C@H]3F)n2)cn1 ?
> 1 h

* * *

assay: Pharmacokinetic study in rats; assay type: in vivo, rat; conditions: rat, plasma; male SD rats; i.v. 1 mg/kg, p.o. 5 mg/kg; route of this value not stated
// reported Cmax for each item listed

Cn1cc(Nc2nccc(C3=C[C@@H]4CC[C@H](C3)N4C(=O)[C@@H]3C[C@H]3F)n2)cn1 > 500 ng/mL

Endpoint output: Cmax of Cn1cc(Nc2nccc(C3=C[C@H]4CC[C@@H](C3)N4C(=O)[C@@H]3C[C@H]3F)n2)cn1 . Value?
300 to 500 ng/mL

* * *

molecular target: JAK1 kinase (Homo sapiens (Human)); test: In vitro inhibitory activity on JAK1 kinase (ADP-Glo Kinase Assay); assay type: biochemical; details: JAK1 4 nM, 1 mM ATP, IRS1 substrate
Recorded IC50, one value per entry.

So what IC50 did Cn1cc(Nc2nccc(C3=C[C@@H]4CC[C@H](C3)N4C(=O)[C@H]3C[C@@H]3F)n2)cn1 get with JAK1 kinase (Homo sapiens (Human))?
300 to 1000 nM

Query for JAK1 kinase (Homo sapiens (Human)): what IC50 does the record show for Cn1cc(Nc2nccc(C3=C[C@H]4CC[C@@H](C3)N4C(=O)[C@H]3C[C@@H]3F)n2)cn1 ?
100 to 300 nM

Can you look up IC50 on JAK1 kinase (Homo sapiens (Human)) for Cn1cc(Nc2nccc(C3=CC4CCC(C3)N4C(=O)[C@H]3C[C@@H]3F)n2)cn1 (some centres unmarked) ?
300 to 1000 nM

Entry Cn1cc(Nc2nccc(C3=C[C@H]4CC[C@@H](C3)N4C(=O)[C@@H]3C[C@H]3F)n2)cn1 , system JAK1 kinase (Homo sapiens (Human)): what IC50 was measured?
< 100 nM

Give IC50 (JAK1 kinase (Homo sapiens (Human))) of the following molecule: Cn1cc(Nc2nccc(C3=C[C@@H]4CC[C@H](C3)N4C(=O)[C@@H]3C[C@H]3F)n2)cn1
< 100 nM
